Test: qHTS assay for environmental chemicals that activate the Aryl hydrocarbon Receptor (AhR) signaling pathway (AID 651777); also: % of control where 0% means no effect; nearly all actives have a fitted effect of over 15% in size
Settings: 1A2-DRE human hepatoma cells, luciferase, 24 h; active compounds read high
Results filed as inconclusive are left out. Calls of active or inactive are those of the source. Calls follow the shape of the dose curve; as a rule, active = well fitted activation curve with a large enough effect; inconclusive = small, poorly fitted or top-dose-only effect; inactive = flat fitted curve, though single readings scatter.
Quantity: activation

Lookup: Name the recorded activation for CC1(C)S[C@@H]2[C@H](NC(=O)[C@H](N)c3ccccc3)C(=O)N2[C@H]1C(=O)O .
Found: 0.371% (inactive)

Lookup: Returns the measured activation for the input compound. Input: O=C(O)[C@H](O)[C@@H](O)[C@H](O)[C@H](O)CO
Found: -0.169% (inactive)

Lookup: # get_value(readout='activation', item= O=C(O)c1cc(O)c(O)c(O)c1 )
Found: -0.689% (inactive)

---

Molecular target: Cytochrome P450 2C9 (Homo sapiens) (UniProt P11712)
Sequence (P11712 whole entry, looked up): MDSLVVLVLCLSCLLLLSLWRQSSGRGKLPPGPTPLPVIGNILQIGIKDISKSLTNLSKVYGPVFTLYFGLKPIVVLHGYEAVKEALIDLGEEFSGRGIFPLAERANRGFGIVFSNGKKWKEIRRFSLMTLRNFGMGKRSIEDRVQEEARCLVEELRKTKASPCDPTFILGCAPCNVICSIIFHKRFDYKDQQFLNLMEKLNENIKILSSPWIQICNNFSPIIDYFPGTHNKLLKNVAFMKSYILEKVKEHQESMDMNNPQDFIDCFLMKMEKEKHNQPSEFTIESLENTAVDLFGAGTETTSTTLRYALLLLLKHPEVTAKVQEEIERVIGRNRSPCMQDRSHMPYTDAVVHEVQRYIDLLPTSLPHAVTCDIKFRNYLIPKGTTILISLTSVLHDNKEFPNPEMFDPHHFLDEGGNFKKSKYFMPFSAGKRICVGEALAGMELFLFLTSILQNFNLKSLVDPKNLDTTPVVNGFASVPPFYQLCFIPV
Experiment: Cytochrome P450 family 2 subfamily C member 9 (CYP2C9) small molecule antagonists: luciferase biochemical (cell-free) qHTS assay (AID 1645842); also: nearly all actives have a fitted effect of over 55% in size
Conditions: P450-Glo CYP2C9 enzyme assay, luciferin luminescence; series mostly up to 57.4 µM
Text: National Center for Advancing Translational Sciences [NCATS] Assay Overview: Cytochrome P450 (CYP) enzymes are membrane-bound hemeproteins that play a key role in metabolism of drugs and xenobiotics. Assaying the effect of chemicals on CYP isozymes is useful to minimize the adverse drug reactions and toxicities in drug development process. […] The luciferin products formed are detected with a luciferin detection reagent, and the amount of light produced is proportional to CYP activity. […]
Results filed as inconclusive are left out. Active and inactive are the calls of the source. Calls follow the shape of the dose curve; as a rule, active = well fitted inhibition curve with a large enough effect in the repeat runs; inconclusive = weak or mixed curves; inactive = no such curve, though single readings can be large or run the other way.
Response enum: yes = active, no = inactive

Lookup: For CS(=O)(=O)c1ccc(-n2nc(C(F)(F)F)cc2-c2ccc(F)cc2)cc1 , which call appears in the assay record?
Found: yes

Lookup: Test call for this molecule, please: O=C(OCc1ccccc1)c1ccccc1
Found: no

Lookup: // return assay outcome for O=C(/C=C/c1ccccc1)NCCO
Found: yes

Lookup: Tell me the recorded outcome of this test for Nc1c(CC(=O)O)cccc1C(=O)c1ccc(Br)cc1 .
Found: no

Lookup: Query: recorded result category for CCCCC1C(=O)N(c2ccccc2)N(c2ccc(O)cc2)C1=O (stereo unspecified) in this test
Found: yes

Lookup: Would you mind telling me which call this test gave Nc1ccc([N+](=O)[O-])cc1O ?
Found: yes

Lookup: For this molecule, state the assay outcome: N=C1N=C(N)c2cc3ccccc3cc21
Found: no

Lookup: What is the recorded call for this molecule in the test? O=C(O)Cc1ccc2c(c1)C(=O)c1ccccc1CO2
Found: no

Lookup: State the result this test recorded for COc1ccnc2c1CCCCC2S(=O)c1nc2ccccc2[nH]1 (stereo unspecified) .
Found: yes

Lookup: For this molecule, state the assay outcome: CCOC(=O)c1ccccc1O
Found: no

Lookup: Hey, what did the test say about CC(C(=O)O)c1ccc(C(=O)c2cccs2)cc1 (stereo unspecified) ?
Found: yes

Lookup: Could you kindly confirm the outcome this assay logged for CN1CC(=O)N/C1=N/C(=O)Nc1cccc(Cl)c1 ?
Found: no

Lookup: Please share the test call associated with O=C(CCN1CCN(CCO)CC1)N1c2ccccc2Sc2ccc(C(F)(F)F)cc21 .
Found: no

Lookup: Tell me the recorded outcome of this test for O=C1CN(/N=C/c2ccc([N+](=O)[O-])o2)C(=O)N1 .
Found: no

Lookup: Recorded test outcome, item C=CCCCCCCCCC(=O)O
Found: no

Lookup: Identify the outcome logged in this assay for the molecule shown: Cc1c(Nc2ncccc2C(=O)O)cccc1C(F)(F)F
Found: no

---

Assay: Cell Viability - SK-N-SH (AID 435);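 also: potency is read from the fitted curve at half-maximal effect; compound exposure lasted 40 h at 37 °C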
Conditions: SK-N-SH neuroblastoma cell viability qHTS
Results filed as inconclusive are left out. The source made the active and inactive calls. Calls come from the whole dose curve.
Outcomes you can answer with include only these: T for active, F for inactive

Lookup: Could you check what this test reported for Nc1nc2ccc([N+](=O)[O-])cc2s1 ?
Found: F

Lookup: What did the test return for Nc1ccc(O)c([N+](=O)[O-])c1 ?
Found: F

Lookup: Could you check what this test reported for CN(C)c1ccc(C(=C2C=CC(=[N+](C)C)C=C2)c2ccccc2)cc1 ?
Found: T

Lookup: // outcome(item) with item = CN1CCC[C@H]1c1cccnc1
Found: F

Lookup: Assay result, entry c1ccc2sc(SSc3nc4ccccc4s3)nc2c1 — outcome?
Found: F

Lookup: So what was the verdict on Oc1ccccc1O in this test?
Found: F

---

Target: Glutaminase kidney isoform, mitochondrial (Homo sapiens) (UniProt O94925)
Sequence (O94925 whole entry, looked up, canonical isoform): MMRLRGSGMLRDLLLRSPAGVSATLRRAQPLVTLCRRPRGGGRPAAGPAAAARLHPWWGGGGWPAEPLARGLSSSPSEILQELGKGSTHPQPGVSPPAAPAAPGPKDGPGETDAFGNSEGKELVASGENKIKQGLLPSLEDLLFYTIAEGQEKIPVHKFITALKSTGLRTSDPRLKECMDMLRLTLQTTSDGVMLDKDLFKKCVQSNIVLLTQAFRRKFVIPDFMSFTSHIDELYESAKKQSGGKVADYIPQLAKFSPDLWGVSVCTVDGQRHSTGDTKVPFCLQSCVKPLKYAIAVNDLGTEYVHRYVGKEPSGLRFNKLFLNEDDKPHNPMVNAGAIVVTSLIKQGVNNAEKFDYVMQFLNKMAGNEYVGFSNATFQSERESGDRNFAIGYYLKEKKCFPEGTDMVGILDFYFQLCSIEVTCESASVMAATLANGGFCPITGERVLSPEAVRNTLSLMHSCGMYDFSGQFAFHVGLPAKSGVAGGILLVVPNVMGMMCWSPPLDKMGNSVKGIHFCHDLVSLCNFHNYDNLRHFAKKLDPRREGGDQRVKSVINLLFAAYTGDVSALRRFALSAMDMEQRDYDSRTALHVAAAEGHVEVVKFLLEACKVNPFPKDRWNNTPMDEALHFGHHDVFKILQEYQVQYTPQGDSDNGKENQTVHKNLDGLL
Assay: qHTS for Inhibitors of Glutaminase (GLS): LOPAC Validation (AID 624146); also: nearly all actives have a fitted effect of over 60% in size
Details: glutaminase enzyme activity inhibition; series mostly up to 46.1 µM
Text: Glutaminase (GLS) catalyzes the hydrolysis of glutamine into glutamate and ammonia. It plays a critical role in glutaminolysis, which is an important energy source for proliferating cells. […] The overall goal of this project is to identify small molecule inhibitors of GLS through quantitative high throughput screening (qHTS) of the MLSMR. […]
Records with an inconclusive call do not appear. Active and inactive are the calls of the source. Calls come from the whole dose curve; as a rule, active = well fitted inhibition curve with a large enough effect; inconclusive = small, poorly fitted or top-dose-only effect; inactive = no such curve, though single readings can be large or run the other way.
The categories you may choose from are 1 (yes) (active), 0 (no) (inactive)

Lookup: How was CCCCC/C=C\CC(O)/C=C/c1cccc(CC(O)CCCCO)n1 (configuration not stated) classified in this test?
Found: 0 (no)

Lookup: Tell me the assay call for Cc1ccc(C(=O)O[C@H](C(=O)O)[C@@H](OC(=O)c2ccc(C)cc2)C(=O)O)cc1 (tested in a mixture with another compound) please.
Found: 0 (no)

Lookup: Fill in: this test's call for CN(C)c1nc2c(Br)c(Br)c(Br)c(Br)c2[nH]1 is ___
Found: 0 (no)

Lookup: State the result this test recorded for N#C/C(=C\c1c[nH]c2ccccc12)C(=O)c1ccc(O)c(O)c1 .
Found: 1 (yes)

Lookup: Returns: the outcome recorded for CCCn1c(=O)c2[nH]c(-c3ccc(OCC(=O)NCCN)cc3)nc2n(CCC)c1=O in this assay.
Found: 0 (no)

Lookup: # lookup: test call for COc1ccccc1CNCCCCCCNCCCCCCCCNCCCCCCNCc1ccccc1OC
Found: 0 (no)

Lookup: Which outcome was assigned to O=S(=O)(c1cccc2c(I)cccc12)N1CCCNCC1 in this test?
Found: 0 (no)

---

Tested on: PC26
Experiment: qHTS profiling for inhibitors of Plasmodium falciparum proliferation (AID 504749);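 also: 0% = DMSO vehicle and full inhibition = artemisinin control; nearly all actives have a fitted effect of over 60% in size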
Conditions: P. falciparum in erythrocytes, SYBR Green DNA, 72 h; series mostly up to 28.7 µM
Method: NIH National Institute of Allergy and Infectious Diseases [NIAID] NIH Chemical Genomics Center [NCGC] […] Because mature erythrocytes lack DNA, only Plasmodium-derived DNA is detected. NCGC Assay Protocol Summary: The SYBR Green viability assay was adapted from a method described previously (Plouffe et al., 2008). […] The following morning, fluorescence intensity at 485(14) nm excitation and 535(25) nm emission wavelengths was measured on an EnVision (Perkin Elmer) plate reader. […]
Results filed as inconclusive are left out. The source made the active and inactive calls. The call rests on the fitted dose curve; in most records, active means well fitted inhibition curve with a large enough effect; inconclusive means small, poorly fitted or top-dose-only effect; inactive means flat fitted curve, though single readings scatter. Where a SMILES comes first, the peptide text is derived from it. [ ]: non-standard residue; d: D form. pGlu = O=C1CC[C@@H](C(=O)O)N1; Thz = O=C(O)[C@@H]1CSCN1
Quantity: Potency

Cc1[nH]cnc1CN1CCc2c(c3ccccc3n2C)C1=O : inactive
CC1OC1P(=O)(O)O (stereo not drawn) : inactive
Cc1c(Nc2ncccc2C(=O)O)cccc1C(F)(F)F : inactive
COc1ccc(-c2cc(=S)ss2)cc1 : inactive

Lookup: Requested read-out: Potency. Entry: Cc1ccccc1CNc1ncnc2c1ncn2C1OC(CO)C(O)C1O (stereo not drawn)
Found: inactive

Lookup: Please give the measured Potency for this molecule: O=C1CC[C@@H](C(=O)N2CSC[C@H]2C(=O)O)N1 ([pGlu]-[Thz]-OH)
Found: inactive

---

Test: qHTS for differential inhibitors of proliferation of Plasmodium falciparum line GB4 (AID 1816);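 also: parasite growth measured after 72 h incubation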
Conditions: Plasmodium falciparum GB4 proliferation inhibition; series mostly up to 28.7 µM
Results filed as inconclusive are left out. Activity calls are given as the source filed them. The call rests on the fitted dose curve; in most records, active means well fitted curve in the direction sought with a large enough effect; inconclusive means small, poorly fitted or top-dose-only effect, or another doubt; inactive means no such curve, though single readings can be large or run the other way.
I would appreciate it if you answered using one of these outcomes: TRUE = active, FALSE = inactive

Lookup: Returns: the outcome recorded for CC12C(=O)OC(=O)C1(C)C1CCC2O1 (stereo not given) in this assay.
Found: TRUE

Lookup: Answer briefly: the call reported for Brc1c(Br)c(Br)c2n[nH]nc2c1Br in this assay.
Found: FALSE

Lookup: Lab log entry: N#C/C(=C\c1ccc(O)c(O)c1)C(=O)NCCCc1ccccc1 — outcome as called in the assay?
Found: TRUE

Lookup: // return assay outcome for Cc1ccccc1CNc1ncnc2c1ncn2C1OC(CO)C(O)C1O (stereo not given)
Found: FALSE

Lookup: Per the assay record, what outcome was assigned to NCCSSCCN ?
Found: FALSE

Lookup: Could you check what this test reported for COc1cc2nc(N3CCN(C(=O)OCc4ccccc4)C(C(=O)NC(C)(C)C)C3)nc(N)c2cc1OC (stereo not given) ?
Found: TRUE

Lookup: Would you mind telling me which call this test gave NC(N)=NC(=O)c1nc(Cl)c(N2CCCCCC2)nc1N ?
Found: TRUE

Lookup: Dear colleague, could you share the recorded outcome for CN1C2CCC1CC(OC(=O)C(O)c1ccccc1)C2 (stereo not given) when you have a moment?
Found: FALSE

Lookup: # outcome recorded in this test, key = OC[C@H]1O[C@@H](n2cnc3c(NC4CCCCC4)ncnc32)[C@H](O)[C@@H]1O
Found: FALSE

Lookup: Which outcome was assigned to O=C(/C=C/c1ccc(O)cc1)c1ccc(O)cc1O in this test?
Found: TRUE
